B1: Catenin delta-1 (Homo sapiens), O60716-29 (parent)
chain: MIGEEVPSDQYYWAPLAQHERGSLASLDSLRKGGPPPPNWRQPELPEVIAMLGFRLDAVKSNAAAYLQHLCYRNDKVKTDVRKLKGIPVLVGLLDHPKKEVHLGACGALKNISFGRDQDNKIAIKNCDGVPALVRLLRKARDMDLTEVITGTLWNLSSHDSIKMEIVDHALHALTDEVIIPHSGWEREPNEDCKPRHIEWESVLTNTAGCLRNVSSERSEARRKLRECDGLVDALIFIVQAEIGQKDSDSKLVENCVCLLRNLSYQVHREIPQAERYQEAAPNVANNTGPHAASCFGAKKGKGKKPIEDPANDTVDFPKRTSPARGYELLFQPEVVRIYISLLKESKTPAILEASAGAIQNLCAGRWTYGRYIRSALRQEKALSAIADLLTNEHERVVKAASGALRNLAVDARNKELIGKHAIPNLVKNLPGGQQNSSWNFSEDTVISILNTINEVIAENLEAAKKLRETQGIEKLVLINKSGNRSEKEVRAAALVLQTIWGYKELRKPLEKEGWKKSDFQVNLNNASRSQSSHSYDDSTLPLIDRNQKSDKKPDREEIQMSNMGSNTKSLDNNYSTPNERGDHNRTLDRSGDLGDMEPLKGTTPLMQKI

# Variants of: B1
# measurement.parameters: with cadh1_mouse Cdh1, P09803
# Sequence (P09803 whole entry): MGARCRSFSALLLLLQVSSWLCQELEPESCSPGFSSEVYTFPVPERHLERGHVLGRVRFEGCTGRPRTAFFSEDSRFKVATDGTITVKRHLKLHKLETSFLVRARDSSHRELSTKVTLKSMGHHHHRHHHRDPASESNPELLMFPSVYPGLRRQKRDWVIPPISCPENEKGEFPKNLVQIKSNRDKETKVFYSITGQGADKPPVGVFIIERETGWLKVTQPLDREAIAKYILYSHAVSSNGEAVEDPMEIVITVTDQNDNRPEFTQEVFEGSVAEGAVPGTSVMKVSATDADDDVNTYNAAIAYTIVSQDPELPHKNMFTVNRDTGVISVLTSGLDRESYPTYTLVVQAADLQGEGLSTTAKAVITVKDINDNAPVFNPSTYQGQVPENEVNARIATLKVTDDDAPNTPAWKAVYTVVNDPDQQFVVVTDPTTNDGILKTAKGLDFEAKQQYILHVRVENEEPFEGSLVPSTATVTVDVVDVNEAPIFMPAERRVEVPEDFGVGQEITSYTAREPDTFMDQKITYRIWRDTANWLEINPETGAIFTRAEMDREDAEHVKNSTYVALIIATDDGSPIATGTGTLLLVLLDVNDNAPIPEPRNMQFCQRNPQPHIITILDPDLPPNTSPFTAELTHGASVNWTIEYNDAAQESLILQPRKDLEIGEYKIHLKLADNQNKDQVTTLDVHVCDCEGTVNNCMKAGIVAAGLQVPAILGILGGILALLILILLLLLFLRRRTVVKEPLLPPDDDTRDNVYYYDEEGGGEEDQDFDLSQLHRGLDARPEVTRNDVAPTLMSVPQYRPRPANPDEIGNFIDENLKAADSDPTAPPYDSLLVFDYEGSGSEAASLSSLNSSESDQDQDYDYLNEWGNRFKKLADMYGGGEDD
measured.quantity: effect of a mutation on the interaction

N155A :: disrupting interaction
K78M :: disrupting interaction
K121M :: disrupting interaction
